Experiment: Cmax in male Sprague-Dawley rat plasma at 10 mg/kg, po administered as single dose via gavage by LC-MS/MS analysis
Assay type: ADME, organism-based
Parameters: dose 10 mg/kg, dosed compound name [14C]lixivaptan, route oral
result type: Cmax (ng/mL)
Reply numerically in ng/mL, unit not repeated.

Endpoint output: Cmax of Cc1ccc(F)cc1C(=O)Nc1ccc(C(=O)N2Cc3cccn3Cc3ccccc32)c(Cl)c1 [LIXIVAPTAN] . Value?
91

###

Tested on: Homo sapiens
Experiment: Drug level in human plasma treated with [14C]lixivaptan at 100 mg, po administered as single dose measured after 8 hrs by liquid scintillation counting
Format: ADME, organism-based
Design: dosed compound name [14C]lixivaptan
Details: in vivo
result type: Compound recovery (%)
Reply numerically in %, unit not repeated.

For orientation, consider the following solved cases.
{"columns": ["molecule", "study system", "Compound recovery, %"],
 "data": [
  ["Cc1ccc(F)cc1C(=O)Nc1ccc(C(=O)N2C=C3CCC(=O)N3Cc3ccccc32)c(Cl)c1", "Homo sapiens", 2.4],
  ["Cc1ccc(F)cc1C(=O)Nc1ccc(C(=O)N2Cc3cccn3C(O)c3ccccc32)c(Cl)c1 (centres undefined)", "Homo sapiens", 2.1]
]}

Endpoint output: Compound recovery of Cc1ccc(F)cc1C(=O)Nc1ccc(C(=O)Nc2ccccc2Cn2cccc2C(=O)O)c(Cl)c1 . Value?
12.2

Endpoint output: Compound recovery of Cc1ccc(F)cc1C(=O)Nc1ccc(C(=O)Nc2ccccc2C(=O)O)c(Cl)c1 . Value?
28.4

###

Assay: Tmax in male beagle dog plasma at 10 mg/kg, po administered as single dose by LC-MS/MS analysis
Assay type: ADME, organism-based, Canis lupus familiaris
Design: dose 10 mg/kg, dosed compound name [14C]lixivaptan, route oral
result type: Tmax (min)
Reply numerically in min, unit not repeated.

Endpoint output: Tmax of Cc1ccc(F)cc1C(=O)Nc1ccc(C(=O)N2Cc3cccn3Cc3ccccc32)c(Cl)c1 . Value?
48

###

# reported Retention_time; entries follow
Assay: Retention time of the compound by HPLC analysis
Type: physicochemical
Parameters: dosed compound name [14C]lixivaptan
Reply numerically in min, unit not repeated.

For orientation, consider the following solved cases.
{"columns": ["compound", "Retention_time (min)"],
 "data": [
  ["Cc1ccc(F)cc1C(=O)Nc1ccc(C(=O)Nc2ccccc2C(=O)O)c(Cl)c1", 24.5],
  ["Cc1ccc(F)cc1[14C](=O)Nc1ccc(C(=O)N2Cc3cccn3Cc3ccccc32)c(Cl)c1", 34.3],
  ["Cc1ccc(F)cc1C(=O)Nc1ccc(C(=O)Nc2ccccc2Cn2cccc2C(=O)O)c(Cl)c1", 23.3],
  ["Cc1ccc(F)cc1C(=O)Nc1ccc(C(=O)N2C=C3CCC(=O)N3Cc3ccccc32)c(Cl)c1", 20.2]
]}

Now take the following compound into account.
Endpoint output: Retention_time of Cc1ccc(F)cc1C(=O)Nc1ccc(C(=O)N2Cc3cccn3C(O)c3ccccc32)c(Cl)c1 (stereo not given) . Value?
25.2
